B1: library; a variant is named by its letters at N, in order (parent)
chain: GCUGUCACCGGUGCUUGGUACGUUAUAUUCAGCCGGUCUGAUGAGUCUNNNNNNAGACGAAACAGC

Variants of: B1
Assay: FACS-Seq fitted mean relative fluorescence mCherry/BFP with ligand (log10 relative fluorescence); HEK293T overexpressing SLC46A1; ligand concentration (+) FACS-Seq: 6 mM; higher = higher reporter protein expression
Settings: with (6R,S)-folinic acid; ligand present: yes
List of FACS-Seq fitted mean (log10) values.

INSERT INTO measurements (sequence_string, result) VALUES
  ('GCUGUCACCGGUGCUUGGUACGUUAUAUUCAGCCGGUCUGAUGAGUCUUCUCGAAGACGAAACAGC', 0.413);

Consider GCUGUCACCGGUGCUUGGUACGUUAUAUUCAGCCGGUCUGAUGAGUCUUAACGCAGACGAAACAGC . Its measured FACS-Seq fitted mean (log10) is 0.0549

Consider GCUGUCACCGGUGCUUGGUACGUUAUAUUCAGCCGGUCUGAUGAGUCUGAGCGAAGACGAAACAGC . Its measured FACS-Seq fitted mean (log10) is 0.145

Consider GCUGUCACCGGUGCUUGGUACGUUAUAUUCAGCCGGUCUGAUGAGUCUUACCUGAGACGAAACAGC . Its measured FACS-Seq fitted mean (log10) is 0.39
